Taken from patent US20230348614A1.

// reported EC50 (read off the curve) for each item listed
Target: T1, CD138 on the surface of U266 cells (CD138+ human lymphoblastic myeloma cell line) (human, UniProt P18827 23-310)
T1 construct: whole, on cells; also called cell surface CD138; membrane CD138
T1 sequence (looked up): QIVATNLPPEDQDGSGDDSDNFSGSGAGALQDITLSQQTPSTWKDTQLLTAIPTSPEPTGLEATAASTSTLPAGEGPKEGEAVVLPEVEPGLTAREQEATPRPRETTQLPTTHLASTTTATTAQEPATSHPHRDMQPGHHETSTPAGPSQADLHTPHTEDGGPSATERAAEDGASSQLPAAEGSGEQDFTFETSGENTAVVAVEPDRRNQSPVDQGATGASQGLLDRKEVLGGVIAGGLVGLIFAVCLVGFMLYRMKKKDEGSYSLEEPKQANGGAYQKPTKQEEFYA
Experiment: flow cytometry on U266 cells at pH 6.5, MFI against antibody concentration (about 0.03-30 ug/mL)

1. Antibody Ab28 (antibody, V domains shown, also called Mab 28) VH: EVQLVQSGAEVKKPGASVKVSCKASGYSFSSYYMHWVRQAPGQGLEWMGTIYPGDSTTNYNQKFQGRVTMTVDTSTRTAYMELSSLRSEDTAVYYCADFVYWGQGTTVTVSS VL: DIVMTQTPLSLSVTPGQPASISCKSSKSLLYKDGKTYLNWFLQKPGQSPQLLIYVVSTRASGVPDRFSGSGSGTDFTLKISRVEAEDVGVYYCQQLVEYPYTFGQGTKLEIK    ~0.8 µg/mL
2. Antibody Ab43 (antibody, V domains shown) VH: EVQLVQSGAEVKKPGASVKVSCKASGYSFSSYYMHWVRQAPGQGLEWMGTIHPSDSTTNYNQKFQGRVTMTVDTSTRTAYMELSSLRSEDTAVYYCADFVYWGQGTTVTVSS VL: DIVMTQTPLSLSVTPGQPASISCKSSKSLLYKDGKTYLLWFLQKPGQSPQLLIYVVSTRASGVPDRFSGSGSGTDFTLKISRVEAEDVGVYYCQQLVEYPYTFGQGTKLEIK    ~0.7 µg/mL

Consider the record given below.
Data point: Antibody Ab137 (antibody, V domains shown) VH: QVQLVQSGAEVKKPGASVKVSCKASGYSFSSYYMHWVRQAPGQGLEWMGTIHPSDSTTNYNQKFQGRVTMTVDTSTRTAYMELSSLRSEDTAVYYCANFVYWGQGTTVTVSS VL: DIVMTQTPLSLSVTPGQPASISCKSSKSLLYKDGKTYLNWFLQKPGQSPQLLIDVVSTRASGVPDRFSGSGSGTDFTLKISRVEAEDVGVYYCQQLVEYPYTFGQGTKLEIK ; EC50 (read off the curve) = ~0.7 µg/mL
